Assay: Measurement of the critical micellar concentration (CMC) by surface tension (tensiometer, water/SA-ambient air interface)
Type: physicochemical
Settings: water/SA-ambient air interface, permuted water, 20° C.; Table II beside CMC
REPORTED_ENDPOINT: Surface tension (mN/m)

Respond only with Surface tension recorded for CCCCCCCCCCCC[N+](C)(C)CCN(CCCS(=O)(=O)[O-])C(C)=O [Example 2] 54

Consider the molecule CCCCCCCCCCCCCCCCCC[N+](C)(C)CCN(CCCS(=O)(=O)[O-])C(C)=O [Example 3] . State its measured Surface tension. 35

Read the entry CCCCCCCCCCCC[N+](C)(C)CCCN(CCCS(=O)(=O)[O-])C(C)=O [Example 5] and write its reported Surface tension. 49

Identify the reported Surface tension for the following entry. CCCCCCCCCCCCCCCCCC[N+](C)(C)CCCN(CCCCS(=O)(=O)[O-])C(C)=O [Example 7] 39

Source listed as patent US4704229A.
